Measured fold change, listed per entry.
# Test system: patient_146514
# assay_details: microbe, parasite or virus in culture
# Type: cell-based, HIV
# reported_conditions: AVE 2, patient_146514, primer set 3; fold change in EC50
# Source text: The integrase encoding sequence was amplified from either wildtype HIV-1 (IIIB) or NL4.3 virus, or HXB2D site-directed mutant viruses containing mutations in integrase (such as T66I, S153Y, M154I, or combinations thereof) (Hazuda et al., Science 2000, 287, 646-650), or patient samples. […]

[
  {
    "compound": "CC(C)(C)NC(=O)[C@@H]1CN(Cc2cccnc2)CCN1C[C@@H](O)C[C@@H](Cc1ccccc1)C(=O)N[C@H]1c2ccccc2C[C@H]1O",
    "fold change": "1,3"
  },
  {
    "compound": "CC(C)(C)NC(=O)[C@@H]1C[C@@H]2CCCC[C@@H]2CN1C[C@@H](O)[C@H](Cc1ccccc1)NC(=O)[C@H](CC(N)=O)NC(=O)c1ccc2ccccc2n1",
    "fold change": "1,7"
  },
  {
    "compound": "CC(C)CN(C[C@@H](O)[C@H](Cc1ccccc1)NC(=O)O[C@H]1CO[C@H]2OCC[C@H]21)S(=O)(=O)c1ccc(N)cc1",
    "fold change": "2,2"
  },
  {
    "compound": "Cc1cc(C#N)cc(C)c1Oc1nc(Nc2ccc(C#N)cc2)nc(N)c1Br [Compound 2]",
    "fold change": "1,3"
  },
  {
    "compound": "c1cc(CN2CCCNCCNCCCNCC2)ccc1CN1CCCNCCNCCCNCC1",
    "fold change": "1,0"
  },
  {
    "compound": "Nc1ccn([C@@H]2CS[C@H](CO)O2)c(=O)n1",
    "fold change": "2,5"
  }
]
